Measured values drawn from patent US11912693B2 for this set.

Molecular target: human sphingosine-1-phosphate receptor 1 (S1P1) (Homo sapiens (Human), UniProt P21453)
Sequence (P21453 whole entry, looked up): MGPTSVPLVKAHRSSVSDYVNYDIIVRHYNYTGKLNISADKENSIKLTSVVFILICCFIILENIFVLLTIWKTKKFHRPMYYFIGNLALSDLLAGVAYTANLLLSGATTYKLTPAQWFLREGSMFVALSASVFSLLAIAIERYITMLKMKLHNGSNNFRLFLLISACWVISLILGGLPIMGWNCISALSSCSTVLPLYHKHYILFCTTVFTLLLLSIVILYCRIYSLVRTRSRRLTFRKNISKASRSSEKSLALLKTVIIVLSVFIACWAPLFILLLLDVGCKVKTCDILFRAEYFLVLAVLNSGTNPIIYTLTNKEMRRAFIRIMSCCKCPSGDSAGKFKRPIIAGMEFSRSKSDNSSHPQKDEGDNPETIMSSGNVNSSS
Test: Inhibition of cAMP production (HTRF cAMP HiRange), S1P1 CHO-K1 cells
Type: cell-based
Settings: CHO-K1; efficacy (SPAN) normalized to fingolimod; read-out: hS1P1 cAMP SPAN
Experimental: Stable clonal Chinese hamster ovary K1 (CHO-K1) cells co-expressing EA-β-arrestin2 and the human sphingosine-1-phosphate receptor 1 (NM_001400, S1P1) with a C-terminal Prolink™ tag were purchased from DiscoverX corporation (Cat #: 93-0207C2). […] Agonist-promoted G-protein responses were determined by measuring changes in intracellular cAMP using the HTRF® cAMP HiRange kit (CisBio, Cat #: 62AM6PEJ) based on time-resolved fluorescence resonance energy transfer (TR-FRET) technology. […]
endpoint: Emax

COc1cccc(-c2cnc(-c3ccc4c(c3)nnn4C(C)C)s2)c1 | < 75%

Can you share its Emax? I mean this molecule: "COC(=O)NS(=O)(=O)n1c(=O)oc2cc(-c3nnc(-c4ccccc4OC)o3)ccc21"
< 75%

Try this molecule next: "FC(F)(F)c1cc(-c2noc(-c3ccc4c(c3)nnn4C3CCCC3)n2)ccc1OCc1cccnc1"
< 75%

Try this molecule next: "Cc1ccncc1-c1noc(-c2ccc3c(c2)nnn3CC(C)(C)O)n1"
> 75%

Try this molecule next: "CC(C)n1ccc2cc(-c3nc(-c4cccc5c4OCO5)no3)ccc21"
> 75%

Try this molecule next: "CC(C)n1ccc2cc(-c3nc(-c4ccccc4Br)no3)ccc21"
> 75%

Try this molecule next: CC(C)n1nnc2cc(-c3noc(C45C6C7C4C4C5C6C74C(=O)O)n3)ccc21 (centres unmarked)
< 75%

Try this molecule next: "Brc1ccccc1-c1nc(-c2ccc3[nH]nnc3c2)no1"
< 75%

Try this molecule next: "CCC1(CC)CC(=O)c2cc(-c3nc(-c4cccnc4)no3)ccc2O1"
> 75%
